- SYSTEM_NAME: T1, antibody raised against ETAG
- T1 construct: Coated at 500 ng/well; also called E-tag antibody
- PROTOCOL_DESCRIPTION: phage ELISA
ETAG (OD) reference
VALUE_KIND: ETAG (OD)

binder="DGI-2-40F-4-F97 (peptide) peptide: QVGGMTQVGATVLSVVTGRGSCDGEDAWYPPGVTVGLGLCAAAGAPVPYPDPLEPRP" value_kind="ETAG (OD)" observed_value=14
binder="RGSLLLTLPRLSGAVGTAYGAAAGAPVPYPDPLEPRP [DGI-2-20F-PP-B3]" value_kind="ETAG (OD)" observed_value=11.7
binder="WWREWVDGSLRGGGGTVLKDAAAGAPVPYPDPLEPRP [DGI-2-20R-3-A122]" value_kind="ETAG (OD)" observed_value=15.1
